Cited source: patent US20260209316A1

# TGT: T1, full-length Sudan GP (GPFL) (Sudan virus (SUDV), UniProt Q7T9D9 33-650)
# T1 construct: also called Sudan GPFL; GP(S)FL
# T1 sequence: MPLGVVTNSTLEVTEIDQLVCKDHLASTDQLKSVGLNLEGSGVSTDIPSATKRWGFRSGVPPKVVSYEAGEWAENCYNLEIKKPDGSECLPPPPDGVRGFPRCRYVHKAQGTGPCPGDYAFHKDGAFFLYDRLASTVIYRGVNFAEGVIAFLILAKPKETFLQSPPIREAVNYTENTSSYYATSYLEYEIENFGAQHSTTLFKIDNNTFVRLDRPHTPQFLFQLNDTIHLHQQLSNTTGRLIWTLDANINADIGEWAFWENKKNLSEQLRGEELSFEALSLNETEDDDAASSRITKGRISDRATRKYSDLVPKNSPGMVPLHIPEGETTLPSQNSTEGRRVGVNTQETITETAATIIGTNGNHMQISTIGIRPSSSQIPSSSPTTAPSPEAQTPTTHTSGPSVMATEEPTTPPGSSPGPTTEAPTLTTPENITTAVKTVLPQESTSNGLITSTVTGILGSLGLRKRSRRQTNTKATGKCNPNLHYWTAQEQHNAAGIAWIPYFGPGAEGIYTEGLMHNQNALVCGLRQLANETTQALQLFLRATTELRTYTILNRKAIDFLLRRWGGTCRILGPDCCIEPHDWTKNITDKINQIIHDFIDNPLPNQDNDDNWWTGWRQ
# PROTOCOL DETAILS: ELISA on coated GP
MEASURE: log10 of EC50 (log10 of the value in µg/mL)
Field: value | Transform: log10 | Quantity: EC50 | Unit: µg/mL

>  <BINDER>
antibody 233S (antibody, V domains shown) VH: EVQLVESGGGLGQPGGSLRLSCAASGFKFKIFGMNWVRQAPGKGLEWVSYISSRSSIIYYADSVKGRFTISRDDATNSLFLQMNSLRDEDTAMYYCVRDYNLIDFVWGSLFDYWGQGILVTVSS VL: AIRMTQSPSSLSASTGDSVTITCRASQNIASYLAWYQQIPGKAPKLLIYVASTLQSGVPSRFSGSGSGTDFTLTISSLQSEDFATYYCQQYYRYPPTFGQGTKVEIK

>  <log10 of EC50>
-0.88

$$$$

Short answer for antibody 294S (antibody, V domains shown) VH: QVQLQESGPGLVKPSQTLSLTCTVSGGSISSGGYHWSWIRQHPGKGLEWIGNIYYNGRTYYNPSLKSRVTISVDTSENEFSLKLSSVTAADTAVYYCARDRRRPRIGHDYGMDVWGQGTKVIVSS VL: DIQMTQSPSSLSASVGDRVTISCRASQSISNFLNWYQQKPGQAPKLLIYTASNLQSGVPSRFSGSGSGTDFTLTISSLQPEDFATYYCQQIYNTGMYSFGQGTKLEIKR : log10 of EC50 was -1.59

// sample antibody 241S (antibody, V domains shown) VH: QVQLVQSGSELKKPGASVKVSCKASGYTFTSYTVNWVRQAPGQGLEWMGWINTNTGNPTYAQGFTGRFVFSSDTSVSTAYLQISDLKAEDTAMYYCARHVAYDLWSGHTVTFDHWGQGTLVTVSS VL: QSALTQPPSASGSPGQSVTISCTGTSSDVGAYNYVSWYQQHPGKAPKLIIYEVTKRPSGVPDRFSGSKSGNTASLTVSGLQAEDEADYYCSSKAGGKTYVFGTGTKVTVL , its log10 of EC50 was -0.63

The binder antibody 503S (antibody, V domains shown) VH: QVQLVQSGAEVKKPGASVRVSCKASGYTFTSYYMHWVRQAPGQGLEWMGQINPSGGTTRYERKFQGRITVTRDTSTSTVYLELSSLRSEDTASYFCACLRDKVTYYDLWSGVDSVWGQGTLVTVSS VL: DIQMTQSPSSLSASVGDRVTITCRASQDISTWLAWYQQKPEKAPKSLIYAASTLETGVPSRFSGSGSGTDFTLTISSLQPEDFATYYCEQYNGFPRTFGQGTKLDIK showed log10 of EC50 equal to -0.19
